Where these numbers come from: paper PMC7582905

- Tested on: Candida lipolytica PCM 2680-FY
- Format: cell-based
- condition: 24 h
Where a SMILES comes first, the peptide text is derived from it. Bridges are numbered along the chain shown (N, C = ends). The star is where a group is joined. Palmitoyl = CCCCCCCCCCCCCCCC(=O)*
observation type: MBIC C. lipolytica (µg/mL)
Please state the figure in µg/mL; there is no need to write the unit.

Example entries and their recorded answers appear below.
• CCCCCCCCCCCCCCCC(=O)N[C@@H](CCCCN)C(=O)N[C@@H](CCCNC(=N)N)C(=O)N[C@@H](CCCCN)C(=O)N[C@@H](CCCCN)C(N)=O [L4, C16-KRKK-NH2] (Palmitoyl-KRKK-NH2) = 16
• CCCCCCCCCCCCCCCC(=O)N[C@H]1CSSC[C@@H](C(N)=O)NC(=O)[C@H](CCCCN)NC(=O)[C@H](CCCCN)NC(=O)[C@H](CCCNC(=N)N)NC(=O)[C@H](CCCNC(=N)N)NC1=O [C7, C16-CRRKKC-NH2] (Palmitoyl-CRRKKC-NH2; disulfide 1-6) = 8
• CCCCCCCCCCCCCCCC(=O)N[C@@H](CCCCN)C(=O)N[C@@H](CCCCN)C(=O)N[C@@H](CCCCN)C(N)=O = 32
• CCCCCCCCCCCCCCCC(=O)N[C@H]1CSSC[C@@H](C(N)=O)NC(=O)[C@H](CCCNC(=N)N)NC(=O)[C@H](CCCCN)NC(=O)[C@H](CCCCN)NC(=O)[C@H](CCCCN)NC1=O [C6, C16-CKKKRC-NH2] (Palmitoyl-CKKKRC-NH2; disulfide 1-6) = 8

q: Query (molecule): CCCCCCCCCCCCCCCC(=O)N[C@H]1CSSC[C@@H](C(N)=O)NC(=O)[C@H](CCCCN)NC(=O)[C@H](CCCCN)NC(=O)[C@H](CCCCN)NC1=O [C1, C16-CKKKC-NH2] (Palmitoyl-CKKKC-NH2; disulfide 1-5) ; field requested: MBIC C. lipolytica
a: 16
